The measured values listed here are drawn from paper PMC6420870.

Please provide measured pKi for the entries that follow.
- SYSTEM_TESTED: rat mGlu5 (HEK293A-rat mGlu5-low) (Rattus norvegicus)
- Sequence (P31424 21-1203): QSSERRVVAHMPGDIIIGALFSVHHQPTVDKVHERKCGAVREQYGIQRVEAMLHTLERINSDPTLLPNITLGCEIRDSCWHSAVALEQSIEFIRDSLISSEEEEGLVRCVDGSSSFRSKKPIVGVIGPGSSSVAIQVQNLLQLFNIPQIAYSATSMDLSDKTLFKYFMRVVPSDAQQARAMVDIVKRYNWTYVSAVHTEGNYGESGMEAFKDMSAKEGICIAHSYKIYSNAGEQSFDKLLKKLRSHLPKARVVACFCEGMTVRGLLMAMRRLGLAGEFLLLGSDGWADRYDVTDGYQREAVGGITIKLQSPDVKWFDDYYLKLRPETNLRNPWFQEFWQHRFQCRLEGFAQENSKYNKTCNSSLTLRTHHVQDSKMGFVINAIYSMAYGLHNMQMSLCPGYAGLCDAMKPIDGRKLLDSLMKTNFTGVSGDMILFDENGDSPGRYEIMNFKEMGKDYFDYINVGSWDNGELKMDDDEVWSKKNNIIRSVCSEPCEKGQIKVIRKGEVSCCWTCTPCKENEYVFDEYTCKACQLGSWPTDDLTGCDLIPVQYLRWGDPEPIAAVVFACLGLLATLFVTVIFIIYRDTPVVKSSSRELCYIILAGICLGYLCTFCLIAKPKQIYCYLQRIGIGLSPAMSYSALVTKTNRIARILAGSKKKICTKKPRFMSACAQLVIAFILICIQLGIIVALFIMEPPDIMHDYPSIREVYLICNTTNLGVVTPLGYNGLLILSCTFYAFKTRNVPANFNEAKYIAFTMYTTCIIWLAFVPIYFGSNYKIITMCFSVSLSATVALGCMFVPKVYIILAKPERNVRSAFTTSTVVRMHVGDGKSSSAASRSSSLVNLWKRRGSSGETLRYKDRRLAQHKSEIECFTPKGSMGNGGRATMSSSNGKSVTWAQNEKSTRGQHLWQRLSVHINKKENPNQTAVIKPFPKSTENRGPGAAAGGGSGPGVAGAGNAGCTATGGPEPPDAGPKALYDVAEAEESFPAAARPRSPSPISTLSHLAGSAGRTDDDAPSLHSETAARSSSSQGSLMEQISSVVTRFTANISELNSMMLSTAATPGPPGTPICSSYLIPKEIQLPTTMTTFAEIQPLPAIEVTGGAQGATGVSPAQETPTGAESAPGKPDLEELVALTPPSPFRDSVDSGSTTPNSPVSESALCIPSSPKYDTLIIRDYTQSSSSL
- ASSAY_DETAILS: [3H]methoxy-PEPy inhibition binding, intact adherent cells
Would you please state pKi, meaning minus log10 of the concentration in mol/L, as a bare number?

(Q) Fill in reported pKi for this entry: COc1cccc(C#Cc2ccc(C)cn2)c1
(A) 7.13

(Q) Fill in reported pKi for this entry: N#Cc1cc(F)cc(C(=O)Nc2cccc(Cl)c2F)c1
(A) 6.94

(Q) Fill in reported pKi for this entry: CN1CC(=O)N=C1NC(=O)Nc1cccc(Cl)c1
(A) 7.15

(Q) Fill in reported pKi for this entry: Fc1ccc2nc(CCC#Cc3ccccn3)cn2c1
(A) 7.31

(Q) Fill in reported pKi for this entry: N#Cc1cnc(Nc2nc3ccccc3o2)nc1-c1ccc(F)cc1
(A) 7.26

* * *

Please provide measured IC50 for the entries that follow.
- SYSTEM_TESTED: rat mGlu5 (HEK293A-rat mGlu5-low) (Rattus norvegicus)
- ASSAY_DETAILS: IP1 accumulation
Report the figure in nM without appending any unit label.

(Q) Fill in reported IC50 for this entry: N#Cc1cc(F)cc(C(=O)Nc2cccc(Cl)c2F)c1 [VU0366248]
(A) 331

(Q) Fill in reported IC50 for this entry: COc1cccc(C#Cc2ccc(C)cn2)c1 [M-5MPEP]
(A) 295

(Q) Fill in reported IC50 for this entry: Fc1ccc2nc(CCC#Cc3ccccn3)cn2c1 [dipraglurant]
(A) 43.7

(Q) Fill in reported IC50 for this entry: CN1CC(=O)N=C1NC(=O)Nc1cccc(Cl)c1 [fenobam]
(A) 148

(Q) Fill in reported IC50 for this entry: N#Cc1cnc(Nc2nc3ccccc3o2)nc1-c1ccc(F)cc1 [VU0366058]
(A) 105
